molecular target: F508delCFTR (Homo sapiens, UniProt P13569, DEL508-508); construct: expressed in transfected cells; host or cells: CFBE41o- human lung-derived epithelial cells (CFBE4lo-F508delCFTR-HRP), doxycycline-inducible; assay: Cell Surface Expression-Horse Radish Peroxidase (CSE-HRP) Assay; type: cell-based; settings: test compound without co-corrector; read-out: EC50 (without co-corrector)
Sequence (P13569 with tags, fused parts or gaps DEL508-508): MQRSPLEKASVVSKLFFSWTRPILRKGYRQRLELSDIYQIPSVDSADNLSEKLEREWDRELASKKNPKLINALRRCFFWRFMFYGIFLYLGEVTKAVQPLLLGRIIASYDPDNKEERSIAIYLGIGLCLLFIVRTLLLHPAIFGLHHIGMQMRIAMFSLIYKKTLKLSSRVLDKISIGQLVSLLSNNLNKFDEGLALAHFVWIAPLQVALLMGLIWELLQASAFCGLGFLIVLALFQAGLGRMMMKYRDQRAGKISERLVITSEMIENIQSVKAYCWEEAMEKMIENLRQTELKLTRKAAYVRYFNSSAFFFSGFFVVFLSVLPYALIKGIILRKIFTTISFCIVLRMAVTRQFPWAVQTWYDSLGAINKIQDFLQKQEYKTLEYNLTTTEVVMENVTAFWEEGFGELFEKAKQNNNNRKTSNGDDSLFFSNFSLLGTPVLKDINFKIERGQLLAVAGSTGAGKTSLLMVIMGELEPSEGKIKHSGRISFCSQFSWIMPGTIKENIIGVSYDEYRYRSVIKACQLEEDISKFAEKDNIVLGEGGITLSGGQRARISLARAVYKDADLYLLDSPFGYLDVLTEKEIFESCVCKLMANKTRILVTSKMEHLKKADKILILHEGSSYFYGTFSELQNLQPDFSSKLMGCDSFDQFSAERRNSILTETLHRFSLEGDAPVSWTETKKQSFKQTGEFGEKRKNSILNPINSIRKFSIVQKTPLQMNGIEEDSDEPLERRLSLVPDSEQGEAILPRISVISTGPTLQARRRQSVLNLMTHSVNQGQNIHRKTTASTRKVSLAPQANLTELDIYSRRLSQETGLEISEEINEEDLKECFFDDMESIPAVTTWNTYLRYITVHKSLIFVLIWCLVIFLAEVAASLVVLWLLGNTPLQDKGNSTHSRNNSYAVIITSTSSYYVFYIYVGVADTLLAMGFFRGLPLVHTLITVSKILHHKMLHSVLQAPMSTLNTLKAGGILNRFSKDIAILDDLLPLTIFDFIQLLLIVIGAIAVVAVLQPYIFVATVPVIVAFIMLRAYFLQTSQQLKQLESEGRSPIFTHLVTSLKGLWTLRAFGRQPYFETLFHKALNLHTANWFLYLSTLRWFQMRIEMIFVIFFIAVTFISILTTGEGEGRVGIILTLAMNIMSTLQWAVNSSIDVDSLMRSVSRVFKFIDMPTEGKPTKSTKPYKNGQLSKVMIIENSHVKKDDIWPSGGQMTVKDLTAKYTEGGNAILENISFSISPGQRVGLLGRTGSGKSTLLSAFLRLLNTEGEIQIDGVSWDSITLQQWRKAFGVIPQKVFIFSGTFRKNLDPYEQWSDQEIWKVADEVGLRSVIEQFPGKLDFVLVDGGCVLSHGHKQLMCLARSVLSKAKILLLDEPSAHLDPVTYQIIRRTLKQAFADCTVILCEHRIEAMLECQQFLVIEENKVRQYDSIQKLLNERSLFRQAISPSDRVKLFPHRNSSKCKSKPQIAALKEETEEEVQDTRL
Value kind: EC50

Here is how some compounds turned out for EC50.
{"columns": ["Compound", "EC50"],
 "data": [
  ["COc1ccc(C23CC(C2)C3)cc1CN[C@H]1[C@H](C(C)(C)C)[C@@H](C(=O)O)N(C(=O)[C@H]2CCC[C@H](OC)C2)[C@H]1c1ccccc1", "1000 to 10000 nM"],
  ["COc1ncc(C(C)(C)C)cc1CN[C@H]1[C@H](C(C)(C)C)[C@@H](C(=O)O)N(C(=O)C2CCCCC2)[C@H]1c1ccccc1F", "< 1000 nM"],
  ["CC(C)(C)[C@H]1[C@H](Nc2ncccc2OCc2ccccc2)[C@H](c2ccccc2)N(C(=O)C2CCCCC2)[C@@H]1C(=O)O", "1000 to 10000 nM"],
  ["CC(C)(C)[C@H]1[C@H](NCc2cc3ccccc3o2)[C@H](c2ccccc2)N(C(=O)C2CCCCC2)[C@@H]1C(=O)O", "1000 to 10000 nM"],
  ["COc1ccc(C(C)(C)C)cc1CN[C@H]1[C@H](C(C)(C)C)[C@@H](C(=O)O)N(C(=O)[C@@H]2CCCCO2)[C@H]1c1ccccc1OC(F)F", "1000 to 10000 nM"]
]}

Dear colleague, could you send me EC50 for each of the items below? Thanks.
1. COc1ccc(C(C)(C)C)cc1CN[C@H]1[C@H](C(C)(C)C)[C@@H](C(=O)O)N(C(=O)[C@@H](Cc2ccccc2)OC)[C@H]1c1ccccc1
2. COc1cc(C(F)(F)F)cc(N(C)[C@@H]2[C@@H](C(C)(C)C)[C@H](C(=O)O)N(C(=O)C3CCCCC3)[C@@H]2c2ccccc2)n1 (racemic)
3. COc1ccc(C(C)(C)C)cc1CN[C@H]1[C@H](C(C)(C)C)[C@@H](C(=O)O)N(C(=O)C2CCOC(C(C)C)C2)[C@H]1c1ccccc1 (stereo partly drawn)
4. COc1ncc(C(F)(F)F)cc1CN[C@H]1[C@H](C23CC(C2)C3)[C@@H](C(=O)O)N(C(=O)OC(C)C)[C@H]1c1ccccc1F
5. COc1ccc(-c2ccccc2)cc1CN[C@H]1[C@H](C(C)(C)OC)[C@@H](C(=O)O)N(C(=O)C2CCCCC2)[C@H]1c1ccccc1
6. COc1ncc(C(F)(F)F)cc1CN[C@H]1[C@H](C(C)(C)C)[C@@H](C(=O)O)N(C(=O)[C@H]2CCCCO2)[C@H]1c1ccccc1C(C)C

OUTPUT:
1. 1000 to 10000 nM
2. > 10000 nM
3. 1000 to 10000 nM
4. 1000 to 10000 nM
5. < 1000 nM
6. 1000 to 10000 nM

INPUT: Quick one: EC50 for COc1ccc(C(C)(C)C)cc1CN[C@H]1[C@H](C(C)(C)C)[C@@H](C(=O)O)N(C(=O)c2cnn(-c3ccc(F)cc3)c2C)[C@H]1c1ccccc1 ?
OUTPUT: < 1000 nM

====

target: F508delCFTR (Homo sapiens, UniProt P13569, DEL508-508); construct: expressed in transfected cells; host or cells: CFBE41o- human lung-derived epithelial cells (CFBE4lo-F508delCFTR-HRP), doxycycline-inducible; assay: Cell Surface Expression-Horse Radish Peroxidase (CSE-HRP) Assay; format: cell-based; conditions: CSE-HRP; with co-corrector (2 μM of 3-[(2R,4R)-4-({[1-(2,2-difluoro-1,3-benzodioxol-5-yl)cyclopropyl]carbonyl}amino)-7-methoxy-3,4-dihydro-2H-chromen-2-yl]benzoic acid); read-out: EC50 (with co-corrector)
pEC50: −log10 of the molar value.
Value kind: pEC50

These recorded examples may help you get a feel for the data.
{"columns": ["Compound", "Subject of test", "pEC50"],
 "data": [
  ["COc1ncc(C2CCC2)cc1CN[C@H]1[C@H](C(C)(C)C)[C@@H](C(=O)O)N(C(=O)[C@H]2CCC[C@@H](C(F)(F)F)C2)[C@H]1c1ccccc1 (relative stereo)", "F508delCFTR (Homo sapiens, UniProt P13569, DEL508-508)", "5.00 to 6.00"],
  ["COc1ncc(C(F)(F)F)cc1CN[C@H]1[C@H](C(C)(C)C)[C@@H](C(=O)O)N(C(=O)C2CCCCC2)[C@H]1c1ccccc1C", "F508delCFTR (Homo sapiens, UniProt P13569, DEL508-508)", "> 6.00"],
  ["COc1ccc(C)cc1CN[C@@H]1[C@@H](C(C)(C)C)[C@H](C(=O)O)N(C(=O)OC(C)C)[C@@H]1c1ccccc1 (racemic)", "F508delCFTR (Homo sapiens, UniProt P13569, DEL508-508)", "5.00 to 6.00"]
]}

Below are 6 compounds. Give each one its pEC50.
1. COc1ccc(C(C)(C)C)cc1CN[C@H]1[C@H](C(C)(C)C)[C@@H](C(=O)O)N(C(=O)[C@H]2C[C@H](CCC#N)C[C@H]2C)[C@H]1c1ccccc1
2. COc1ccc(F)c(CN[C@H]2[C@H](C(C)(C)C)[C@@H](C(=O)O)N(C(=O)C3CCCCC3)[C@H]2c2ccccc2)c1
3. COc1cc(C(F)(F)F)ccc1CN[C@@H]1[C@@H](C(C)(C)C)[C@H](C(=O)O)N(C(=O)C2CCC(F)(F)CC2)[C@@H]1c1ccccc1 (racemic)
4. COc1ncc(C(F)(F)F)cc1CN[C@H]1[C@H](C(C)(C)C)[C@@H](C(=O)O)N(C(=O)C23CC(C2)C3)[C@H]1c1ccccc1C(C)C
5. COc1ncc(C2CCC2)cc1CN[C@H]1[C@H](C(C)(C)C)[C@@H](C(=O)O)N(C(=O)[C@@H]2CCCCO2)[C@H]1c1ccccc1Br
6. COc1ccc(C(C)(C)C)cc1CN[C@H]1[C@H](C(C)(C)C)[C@@H](C(=O)O)N(C(=O)Cc2ncc(Cl)cc2F)[C@H]1c1ccccc1

OUTPUT:
["5.00 to 6.00", "5.00 to 6.00", "5.00 to 6.00", "> 6.00", "> 6.00", "> 6.00"]

Here are 3 compounds. What values of pEC50 were reported for them?
1. CC(C)(C)c1cc(CN[C@H]2[C@H](C(C)(C)C)[C@@H](C(=O)O)N(C(=O)C3CCCCC3)[C@H]2c2ccccc2)cc(C(C)(C)C)c1
2. COc1ccc(C(C)(C)C)cc1CN[C@H]1[C@H](C(C)(C)C)[C@@H](C(=O)O)N(C(=O)C(OC)C(C)(C)C)[C@H]1c1ccccc1 (relative stereo) [II-297]
3. COc1ccc(C(C)(C)C)cc1CN[C@H]1[C@H](C(C)(C)C)[C@@H](C(=O)O)N(C(=O)c2cc(-c3ccccc3)n(C)n2)[C@H]1c1ccccc1

OUTPUT:
1: 5.00 to 6.00; 2: 5.00 to 6.00; 3: > 6.00

Quick batch: pEC50 for everything below.
1. COc1ccc(C(F)(F)F)cc1CN[C@@H]1[C@@H](C(C)(C)C)[C@H](C(=O)O)N(C(=O)[C@H]2CCCO[C@H]2C)[C@@H]1c1ccccc1 (racemic)
2. COc1cc2c(cc1CN[C@H]1[C@H](C(C)(C)C)[C@@H](C(=O)O)N(C(=O)OC(C)C)[C@H]1c1cccnc1N(C)C)C(C)(C)CCC2(C)C
3. COc1ccc(C(C)(C)C)cc1CN[C@H]1[C@H](C(C)(C)C)[C@@H](C(=O)O)N(C(=O)CC2CCC(C)(C)OC2)[C@H]1c1ccccc1 (some centres unmarked)
4. COc1ccc(C(C)(C)C)cc1CN[C@H]1[C@H](C(C)(C)C)[C@@H](C(=O)O)N(C(=O)C2CCCC(C(F)(F)F)C2)[C@H]1c1ccccc1 (some centres unmarked)

OUTPUT:
1. 5.00 to 6.00
2. 5.00 to 6.00
3. 5.00 to 6.00
4. > 6.00

Please state pEC50 for every compound in the list that follows.
1. COc1ccc(C(C)(C)C)cc1CN[C@H]1[C@H](C(C)(C)C)[C@@H](C(=O)O)N(C(=O)[C@@]2(C)COc3cc4c(cc32)OC(F)(F)O4)[C@H]1c1cccnc1OC
2. COc1ncc(C(F)(F)F)cc1CN[C@H]1[C@H](C(C)(C)C)[C@@H](C(=O)O)N(C(=O)C2CCC2)[C@H]1c1ccccc1C(C)C

OUTPUT:
1. 5.00 to 6.00
2. > 6.00

====

biological target: F508delCFTR (Homo sapiens, UniProt P13569, DEL508-508); construct: expressed in transfected cells; host or cells: CFBE41o- human lung-derived epithelial cells (CFBE4lo-F508delCFTR-HRP), doxycycline-inducible; test: Cell Surface Expression-Horse Radish Peroxidase (CSE-HRP) Assay; format: cell-based; conditions: with co-corrector (2 μM of 3-[(2R,4R)-4-({[1-(2,2-difluoro-1,3-benzodioxol-5-yl)cyclopropyl]carbonyl}amino)-7-methoxy-3,4-dihydro-2H-chromen-2-yl]benzoic acid); maximum at any tested concentration, normalized to on-plate positive control;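 as to Maximum % activity (with co-corrector): co-corrector and positive control are both the same reference corrector at 2 µM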
Value kind: Maximum % activity (with co-corrector)

Past entries and their recorded results:
{"columns": ["Compound", "Value kind", "Result value"],
 "data": [
  ["COc1cc(C(F)(F)F)ccc1CN[C@H]1[C@H](C(C)(C)C)[C@@H](C(=O)O)N(C(=O)CC(C)C)[C@H]1c1ccccc1", "Maximum % activity (with co-corrector)", "+++ (≥350)"],
  ["COc1cccc(CN[C@@H]2[C@@H](C(C)(C)C)[C@H](C(=O)O)N(C(=O)C3CCCCC3)[C@@H]2c2ccccc2)n1 (racemic)", "Maximum % activity (with co-corrector)", "++ (≥150 and <350)"],
  ["COc1ccc(C23CC(C2)C3)cc1CN[C@H]1[C@H](C(C)(C)OC)[C@@H](C(=O)O)N(C(=O)OC(C)C)[C@H]1c1cccnc1N(C)C", "Maximum % activity (with co-corrector)", "+++ (≥350)"],
  ["COc1ccc(C(C)(C)C)cc1CN[C@H]1[C@H](C(C)(C)C)[C@@H](C(=O)O)N(C(=O)C(C)Oc2ccccc2F)[C@H]1c1ccccc1 (stereo partly drawn)", "Maximum % activity (with co-corrector)", "+++ (≥350)"],
  ["COc1ccc(Cl)cc1CN[C@@H]1[C@@H](C(C)(C)C)[C@H](C(=O)O)N(C(=O)C2CCCCC2)[C@@H]1c1ccccc1 (racemic)", "Maximum % activity (with co-corrector)", "+++ (≥350)"],
  ["COc1ccc(C(C)(C)C)cc1CN[C@H]1[C@H](C(C)(C)C)[C@@H](C(=O)O)N(C(=O)C2CCc3ccccc32)[C@H]1c1ccccc1 (stereo partly drawn)", "Maximum % activity (with co-corrector)", "+++ (≥350)"]
]}

Please state Maximum % activity (with co-corrector) for every compound in the list that follows.
1. COc1ncc(-c2cccc(F)c2F)cc1CN[C@H]1[C@H](C(C)(C)C)[C@@H](C(=O)O)N(C(=O)C2CCCCC2)[C@H]1c1ccccc1
2. CC(C)(C)[C@@H]1[C@@H](Nc2cc(C#N)ccn2)[C@@H](c2ccccc2)N(C(=O)C2CCCCC2)[C@H]1C(=O)O (racemic)

OUTPUT:
+++ (≥350)
++ (≥150 and <350)
